Target: purified human plasma kallikrein (Homo sapiens)
Construct: Plasma prekallikrein is a zymogen of a trypsin-like serine protease
Sequence (P03952 391-638 limits assumed): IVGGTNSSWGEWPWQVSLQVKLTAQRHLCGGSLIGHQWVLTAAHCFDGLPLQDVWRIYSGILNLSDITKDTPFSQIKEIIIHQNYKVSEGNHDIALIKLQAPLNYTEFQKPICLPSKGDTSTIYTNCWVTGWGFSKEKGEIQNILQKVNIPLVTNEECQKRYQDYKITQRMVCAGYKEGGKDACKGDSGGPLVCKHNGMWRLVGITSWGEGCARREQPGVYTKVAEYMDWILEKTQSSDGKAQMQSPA
Sequence (P03952 20-390 partner limits assumed): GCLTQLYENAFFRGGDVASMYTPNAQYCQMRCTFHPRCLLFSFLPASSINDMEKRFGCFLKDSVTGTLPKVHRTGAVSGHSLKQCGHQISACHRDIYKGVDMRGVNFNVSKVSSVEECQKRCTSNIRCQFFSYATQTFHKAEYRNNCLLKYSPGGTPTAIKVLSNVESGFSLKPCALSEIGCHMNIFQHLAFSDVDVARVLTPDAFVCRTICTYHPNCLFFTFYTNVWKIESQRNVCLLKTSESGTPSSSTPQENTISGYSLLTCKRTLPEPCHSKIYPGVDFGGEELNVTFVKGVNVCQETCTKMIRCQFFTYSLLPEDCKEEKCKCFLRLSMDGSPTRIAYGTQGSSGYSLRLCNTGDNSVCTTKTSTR
Assay: Plasma kallikrein enzyme inhibition assay (chromogenic substrate S-2302)
Details: substrate S-2302, pH 7.5
Label fulfilled when Ki < 3000 nM; otherwise not fulfilled.

Record C[C@@H]1CCC[C@H](N2CCC(c3cc(Cl)ccc3-n3cc(Cl)nn3)=CC2=O)C(=O)NCc2ccccc2NC1=O : is its Ki strictly below 3000 nM? fulfilled

Record C[C@@H]1CCC[C@H](NC(=O)c2cn(-c3cccc(Cl)c3F)nn2)C(=O)NCc2ccccc2NC1=O : is its Ki strictly below 3000 nM? not fulfilled

Record C[C@@H]1CCC[C@H](n2cnc(-c3c(-n4cc(Cl)nn4)ccc(Cl)c3F)cc2=O)C(=O)NCc2ccccc2NC1=O : is its Ki strictly below 3000 nM? fulfilled

Record C[C@@H]1CCC[C@H](n2cnc(-c3cc(Cl)ccc3-n3cc(Cl)nn3)cc2=O)C(=O)NCc2ccccc2NC1=O : is its Ki strictly below 3000 nM? fulfilled

Record C[C@@H]1CCC[C@H](n2cnc(-c3cc(Cl)ccc3-n3cc(C(F)(F)F)nn3)cc2=O)C(=O)NCc2ccccc2NC1=O : is its Ki strictly below 3000 nM? not fulfilled

Record C[C@@H]1CCC[C@H](N2CCC(c3c(F)ccc(Cl)c3F)=CC2=O)C(=O)NCc2ccccc2NC1=O : is its Ki strictly below 3000 nM? fulfilled

Record C[C@@H]1CCC[C@H](n2ccc(-c3cc(Cl)ccc3-n3cc(Cl)nn3)cc2=O)C(=O)NCc2ccccc2NC1=O : is its Ki strictly below 3000 nM? fulfilled

Record O=C1CCCCC[C@H](NC(=O)c2cn(-c3cccc(Cl)c3F)nn2)C(=O)Nc2ccccc2N1 : is its Ki strictly below 3000 nM? not fulfilled

Record COC(=O)c1ccc2c(c1)NC(=O)CCCCC[C@H](n1cnc(-c3cc(Cl)ccc3-n3cc(C(F)(F)F)nn3)cc1=O)C(=O)N2 : is its Ki strictly below 3000 nM? not fulfilled

Record CC1NC(=O)[C@@H](N2CCC(c3cc(Cl)ccc3-n3cc(C(F)(F)F)nn3)=CC2=O)CCC[C@@H](C)C(=O)Nc2ccccc21 (single isomer, unassigned; diastereomer a) [Example 21] : is its Ki strictly below 3000 nM? fulfilled

Record C[C@@H]1CCC[C@H](n2cnc(-c3cc(Cl)ccc3-n3cc(C(F)F)nn3)cc2=O)C(=O)NCc2ccccc2NC1=O : is its Ki strictly below 3000 nM? not fulfilled

Record C[C@@H]1CCC[C@H](n2cnc(-c3cc(Cl)ccc3-n3cc(C(F)(F)F)nn3)cc2=O)C(=O)NCc2cc(F)ccc2NC1=O : is its Ki strictly below 3000 nM? not fulfilled

Record O=C1CCCCC[C@H](n2cnc(-c3cc(Cl)ccc3-n3cc(C(F)(F)F)nn3)cc2=O)C(=O)Nc2ccc(C(=O)O)cc2N1 : is its Ki strictly below 3000 nM? not fulfilled

Record C[C@@H]1CCC[C@H](N2CCC(c3cc(Cl)ccc3-n3cc(C(F)(F)F)nn3)=CC2=O)C(=O)NCc2ccccc2NC1=O : is its Ki strictly below 3000 nM? fulfilled

----------
Biological target: purified human plasma kallikrein (Homo sapiens)
Construct: Plasma prekallikrein is a zymogen of a trypsin-like serine protease
Assay: Plasma kallikrein enzyme inhibition assay (chromogenic substrate S-2302)
Settings: substrate S-2302, pH 7.5
reported_property: Ki (nM)
Report the figure in nM without appending any unit label.

Item under review: C[C@@H]1CCC[C@H](N2CCC(c3cc(Cl)ccc3-n3cc(C(F)(F)F)nn3)=CC2=O)C(=O)NCc2cc(F)ccc2NC1=O [Example 20] . Reported Ki? 268

Item under review: C[C@@H]1CCC[C@H](n2cnc(-c3c(-n4cc(C(F)(F)F)nn4)ccc(Cl)c3F)cc2=O)C(=O)NCc2ccccc2NC1=O [Example 14] . Reported Ki? 733

Item under review: Cc1c(C(=O)N[C@H]2CCCCCC(=O)Nc3cc(C(=O)O)ccc3NC2=O)cnn1-c1cccc(Cl)c1F [Example 26] . Reported Ki? 765

Item under review: Cc1c(C(=O)N[C@H]2CCC[C@@H](C)C(=O)Nc3ccccc3CNC2=O)ncn1-c1cccc(Cl)c1F [Example 24] . Reported Ki? 4360
